Target: T1, Recombinant hIL-36R protein (Acrobio, Cat #IL2-H52H6) (human, UniProt Q9HB29 20-335)
T1 construct: Bought soluble protein; also called recombinant human IL-36R protein
T1 sequence: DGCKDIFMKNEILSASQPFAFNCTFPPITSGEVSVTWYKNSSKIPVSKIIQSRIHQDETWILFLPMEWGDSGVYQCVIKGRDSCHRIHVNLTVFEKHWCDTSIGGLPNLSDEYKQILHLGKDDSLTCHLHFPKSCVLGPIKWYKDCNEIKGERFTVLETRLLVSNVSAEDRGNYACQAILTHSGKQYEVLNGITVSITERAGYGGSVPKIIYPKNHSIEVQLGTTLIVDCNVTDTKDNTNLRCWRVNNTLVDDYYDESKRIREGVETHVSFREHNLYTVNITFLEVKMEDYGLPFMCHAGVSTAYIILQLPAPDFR
Assay: BLI (Gator), antibody on Protein A sensor, hIL-36R analyte
pKd: −log10 of the molar value.
Entries and their measured pKd follow.
property-label: pKd

| binder | property-label | recorded-value |
| --- | --- | --- |
| 1C11 (antibody, V domains shown, Mouse variable regions, recombinantly expressed) VH: EVQVQQSGTELVKPGASVKLSCKASGYTFTNYWLHWVKQRPGQGLEWIGNINPSNGGTNYNEKFKTKATLTVDKSSSTAYMQLSSLTSEDSAVYYCARYSTGFAYWGQGTLVTVSA VL: DIVLTQTTASLAVSLGQRATISCRASESVDTYGASFMHWYQQKPGQPPKLLIYRASNLESGIPARFSGSGSRTDFTLTVNPVEADDVATYYCQQSNEDPRTFGGGTKLEIK | pKd | 7.86 |
| 9C12 (antibody, V domains shown, Mouse variable regions, recombinantly expressed) VH: EVQLQQSGPELVKPGASVKMSCKASGYTFTDYHMNWVKRSPGKSLEWIGRINPDYGDARYDQKFKGKATLTVDKSLSTAYMQLNRLTYEDSAVYYCARDGYYVFDYWGQGSTLTVSS VL: DIVMTQAAFSNPVSLGTSASISCRSSKSLLHSDGITYLSWYLQRPGQSPQLLIYRMSNLVSGVPDRFSGSGSGTDFTLRISRVEAEDVGVYYCAQTLEFPLTFGAGTKLELK | pKd | 8.00 |
| 5F7 (antibody, V domains shown, Mouse variable regions; also called chimeric antibody 5F7; 5F7 original molecular) VH: EVKLVESGGGLVQPGGSLSLSCAASGFAFTDYYMNWVRQPPGKALEWLALIRNKAAGYTIYYSASVKGRFTISRDNSQSILYLQMTALRPEDSATYYCVRDMTIYDGYYVDYALDYWGQGTSVTVSS VL: DIQMNQSPSSLSASLGDTITITCRASQNINIWLSWYQQKPGNIPKLFIYKASNLHTGVPSRFSGSGSGTDFTLTISSLQPEDIATYYCQQSQSYPLTFGAGTKLELK | pKd | 7.84 |
| 10F6 (antibody, V domains shown, Mouse variable regions, recombinantly expressed) VH: QVQLQQSGAELVKPGASVRLSCKASGYTFTEFTIHWVKQRSGQGLEWIGWFYPGSDFIKYNEKFKDKATLTADKSSNTVYMELLRLTSEDSAVYFCARHEDRLSDYSYEWYFDVWGAGTAVTVSS VL: DIQMTQSPASLSASVGETVTITCRASENIDSYLAWYQQKQGKSPQLLVYGATLLADGVPSRFSGSGSGTQYSLKINSLQSEDVAEYFCQHYYSIPLTFGAGTKLELK | pKd | 9.05 |

Attribution: patent US20250002593A1
